Assign inhibition at 500 µM to each entry below.
- experimental target: UniProt P35354
- Sequence (P35354 18-604): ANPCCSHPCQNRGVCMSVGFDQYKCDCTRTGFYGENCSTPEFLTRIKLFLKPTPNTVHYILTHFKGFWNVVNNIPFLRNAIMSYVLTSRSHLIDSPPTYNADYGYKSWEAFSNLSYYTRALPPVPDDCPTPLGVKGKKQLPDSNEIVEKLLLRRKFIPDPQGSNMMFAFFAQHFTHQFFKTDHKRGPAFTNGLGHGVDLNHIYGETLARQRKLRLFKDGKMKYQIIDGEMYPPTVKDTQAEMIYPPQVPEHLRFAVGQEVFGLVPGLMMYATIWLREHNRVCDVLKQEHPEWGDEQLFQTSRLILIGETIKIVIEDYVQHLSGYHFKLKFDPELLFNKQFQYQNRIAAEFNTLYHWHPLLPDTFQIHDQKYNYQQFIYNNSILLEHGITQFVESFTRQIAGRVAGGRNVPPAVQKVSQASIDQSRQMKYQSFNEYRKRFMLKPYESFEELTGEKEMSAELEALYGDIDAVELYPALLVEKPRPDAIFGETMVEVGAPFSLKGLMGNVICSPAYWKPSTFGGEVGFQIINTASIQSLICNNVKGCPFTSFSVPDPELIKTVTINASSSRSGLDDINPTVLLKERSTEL
- procedure summary: In vitro inhibition of COX-2 activity
- cond: read-out: COX-2 percent inhibition
One number for each entry, in %.

// solved cases for inhibition at 500 µM follow
>>> reported("O=C1C=C(Nc2ncccn2)C(=O)c2ccccc21 [Compound 4r]")
6.6
>>> reported("Cc1cc(C)nc(NC2=CC(=O)c3ccccc3C2=O)n1 [Compound 4t]")
0
>>> reported("O=C1C=C(Nc2ccc(Br)cn2)C(=O)c2ccccc21 [Compound 4l]")
8

For each entry beneath this line, provide reported inhibition at 500 µM.
1. CC1=CC(=O)C(Nc2ccccn2)=CC1=O [Compound 4c]
2. O=C1C=C(Nc2ccccn2)C(=O)c2ccccc21 [Compound 4i]
3. COC1=C(OC)C(=O)C(Nc2ccccn2)=C(C)C1=O [Compound 4e]
4. CC1=CC(=O)C(Nc2ncccn2)=CC1=O [Compound 4p]
5. CC1=C(C)C(=O)C(Nc2nc(C)cc(C)n2)=CC1=O [Compound 4s]

## Output
20.1
16.5
9.4
0
3.3

----------
Assign change in vivo at 50 µg/ear to each entry below.
- Test system: arachidonic acid-induced ear inflammation in mice
- procedure summary: Arachidonic acid-induced ear inflammation in mice (AAE test)
- Type: in vivo
- cond: Mus musculus; 50 μg/ear; mice, topical; read-out: % inhibition of AA-induced ear inflammation
Give bare numbers, in %.

// solved cases for change in vivo at 50 µg/ear follow
>>> reported("Cc1cc(C)nc(NC2=CC(=O)c3ccccc3C2=O)n1")
-3.3
>>> reported("CC1=C(C)C(=O)C(Nc2ccccn2)=CC1=O")
-18.3
>>> reported("CC1=CC(=O)C(Nc2ccccn2)=CC1=O")
-52.8

Memo: CC1=C(C)C(=O)C(Nc2nc(C)cc(C)n2)=CC1=O , reported change in vivo at 50 µg/ear: -17.3

----------
- experimental target: COX-1 (Homo sapiens, UniProt P23219)
- Sequence (P23219 24-599): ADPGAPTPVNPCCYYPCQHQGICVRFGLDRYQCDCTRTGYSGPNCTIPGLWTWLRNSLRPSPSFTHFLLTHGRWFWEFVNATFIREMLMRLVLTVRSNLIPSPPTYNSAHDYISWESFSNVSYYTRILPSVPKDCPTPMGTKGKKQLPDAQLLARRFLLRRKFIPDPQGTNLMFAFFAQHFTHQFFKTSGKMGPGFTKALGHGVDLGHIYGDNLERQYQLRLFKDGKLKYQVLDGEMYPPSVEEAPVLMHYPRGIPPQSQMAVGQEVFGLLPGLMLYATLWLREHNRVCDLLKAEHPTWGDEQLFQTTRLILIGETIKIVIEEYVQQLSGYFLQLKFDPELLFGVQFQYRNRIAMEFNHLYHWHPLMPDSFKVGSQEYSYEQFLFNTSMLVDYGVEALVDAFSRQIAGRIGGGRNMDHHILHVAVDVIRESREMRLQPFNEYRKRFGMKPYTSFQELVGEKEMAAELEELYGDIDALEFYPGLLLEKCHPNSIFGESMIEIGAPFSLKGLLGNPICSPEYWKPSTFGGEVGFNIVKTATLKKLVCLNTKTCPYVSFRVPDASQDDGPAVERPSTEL
- procedure summary: In vitro inhibition of COX-1 activity
- cond: read-out: COX-1 percent inhibition
observable: inhibition at 500 µM
Hi, when you answer, please include the unit after the number. Thanks!

// solved cases for inhibition at 500 µM follow
>>> reported("CC1=CC(=O)C(Nc2ncccn2)=CC1=O")
"8.4%"
>>> reported("CC(=O)Oc1ccccc1C(=O)O [Aspirin, reference compound]")
"83.1%"
>>> reported("Cc1cc(C)nc(NC2=CC(=O)c3ccccc3C2=O)n1")
"8.2%"
>>> reported("CC1=CC(=O)C(Nc2ccccn2)=CC1=O")
"5.2%"
>>> reported("COC1=C(OC)C(=O)C(Nc2ccccn2)=C(C)C1=O")
"11.2%"
>>> reported("CC1=C(C)C(=O)C(Nc2nc(C)cc(C)n2)=CC1=O")
"8.4%"

For each entry beneath this line, provide reported inhibition at 500 µM.
1. O=C1C=C(Nc2ccccn2)C(=O)c2ccccc21
2. O=C1C=C(Nc2ncccn2)C(=O)c2ccccc21
3. O=C1C=C(Nc2ccc(Br)cn2)C(=O)c2ccccc21

## Output
1: 23.1%; 2: 14.4%; 3: 16.8%

----------
Assign melting point to each entry below.

// solved cases for melting point follow
>>> reported("CC1=CC(=O)C(Nc2ncccn2)=CC1=O")
"172 to 174 °C"
>>> reported("COC1=C(OC)C(=O)C(Nc2ncccn2)=C(C)C1=O")
"132 to 134 °C"
>>> reported("O=C1C=C(Nc2ccc(Cl)cn2)C(=O)c2ccccc21")
"251 to 252 °C"
>>> reported("Cc1cc(C)nc(NC2=CC(=O)c3ccccc3C2=O)n1")
"196 to 197 °C"
>>> reported("O=C1C=C(Nc2ccc(Br)cn2)C(=O)c2ccccc21")
"243 to 244 °C"

For each entry beneath this line, provide reported melting point.
1. COC1=C(OC)C(=O)C(Nc2ccc(Br)cn2)=C(C)C1=O
2. O=C1C=C(Nc2ncc(Cl)cc2Cl)C(=O)c2ccccc21
3. CC1=CC(=O)C(Nc2ccccn2)=CC1=O
4. CC1=C(Nc2ccccn2)C(=O)c2ccccc2C1=O
5. CC1=CC(=O)C=C(Nc2ncccn2)C1=O

## Output
1. 99 to 100 °C
2. 249 to 250 °C
3. 137 to 139 °C
4. 130 to 132 °C
5. 167 to 169 °C

For each entry beneath this line, provide reported melting point.
1. O=C1C=C(Nc2ccccn2)C(=O)c2ccccc21
2. O=C1C=C(Nc2nccc(-c3ccccc3)n2)C(=O)c2ccccc21
3. CC1=CC(=O)C(Nc2cnccn2)=CC1=O
4. CC1=CC(=O)C=C(Nc2ccccn2)C1=O
5. COC1=C(OC)C(=O)C(Nc2ccc(Cl)cn2)=C(C)C1=O
6. O=C1C=C(Nc2ccccn2)C(=O)C(c2ccccc2)=C1
7. O=C1C=C(Nc2ncccn2)C(=O)c2ccccc21

## Output
1: 205 to 206 °C; 2: 229 to 230 °C; 3: 134 to 136 °C; 4: 162 to 164 °C; 5: 106 to 108 °C; 6: 165 to 167 °C; 7: 245 to 247 °C

For each entry beneath this line, provide reported melting point.
1. CC1=C(C)C(=O)C(Nc2nc(C)cc(C)n2)=CC1=O
2. O=C1C=C(Nc2ccc(I)cn2)C(=O)c2ccccc21
3. O=C1C=C(Nc2cnccn2)C(=O)c2ccccc21
4. COC1=C(OC)C(=O)C(Nc2ccccn2)=C(C)C1=O

## Output
1. 188 to 189 °C
2. 245 to 246 °C
3. 245 to 247 °C
4. 79 to 81 °C

Memo: O=C1C=CC(=O)C(Nc2ccccn2)=C1 , reported melting point: 102 to 104 °C

----------
- experimental target: 5-lipoxygenase (5-LO) (Oryctolagus cuniculus)
- Construct: Polymorphonuclear leukocytes (PMNLs) were purified from rabbits by glycogen-intraperitoneal elicited intraperitoneal recruitment; endogenous in cells; host or cells: rabbit peritoneal polymorphonuclear leukocytes (PMNL), glycogen-elicited
- procedure summary: Radioisotopic assay of 5-LO activity (LTB4 formation from 14C-arachidonic acid) in rabbit peritoneal PMNL stimulated with A-23187
- Type: cell-based
- cond: peritoneal PMNL
- Excerpt: The 5-LO enzyme, which is found primarily in cells of myeloid origin such as polymorphonuclear leukocytes (“PMNL”), eosinophils, and macrophages, catalyzes the first step of the biochemical pathway in which arachadonic acid (“AA”) is,converted into LTA4. […] Bands containing 5-lipoxygenase (5-LO) metabolites were scraped from the TLC plates, and ^14C levels were quantitatively measured by liquid scintillation. […]
observable: in vitro 5-LO activity in words

>>> reported("CC1=CC(=O)C(Nc2cnccn2)=CC1=O")
"inactive"
>>> reported("CC1=CC(=O)C=C(Nc2cnccn2)C1=O")
"inactive"

----------
Assign 5-LO percent inhibition to each entry below.
- experimental target: 5-LO (Rattus norvegicus, UniProt P12527)
- Sequence (P12527 whole entry): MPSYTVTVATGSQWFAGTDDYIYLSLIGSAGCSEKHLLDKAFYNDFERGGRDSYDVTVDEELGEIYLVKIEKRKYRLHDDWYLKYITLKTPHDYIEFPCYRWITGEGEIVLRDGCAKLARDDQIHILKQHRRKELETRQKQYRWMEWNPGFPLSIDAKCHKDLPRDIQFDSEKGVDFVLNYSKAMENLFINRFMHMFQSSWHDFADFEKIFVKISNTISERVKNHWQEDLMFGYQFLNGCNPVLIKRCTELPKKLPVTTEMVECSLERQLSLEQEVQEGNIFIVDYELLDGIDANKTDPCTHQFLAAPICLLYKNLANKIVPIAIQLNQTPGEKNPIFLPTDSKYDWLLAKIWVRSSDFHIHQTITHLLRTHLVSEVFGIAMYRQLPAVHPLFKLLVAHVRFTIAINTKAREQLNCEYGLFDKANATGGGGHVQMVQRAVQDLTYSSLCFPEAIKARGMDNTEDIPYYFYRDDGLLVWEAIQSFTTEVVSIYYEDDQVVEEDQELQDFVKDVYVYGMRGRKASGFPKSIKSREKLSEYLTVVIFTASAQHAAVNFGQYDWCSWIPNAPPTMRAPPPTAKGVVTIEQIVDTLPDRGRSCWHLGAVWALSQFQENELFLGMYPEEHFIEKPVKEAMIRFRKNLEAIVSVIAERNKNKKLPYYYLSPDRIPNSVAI
- procedure summary: 5-LO inhibition by radioimmunoassay (RIA) in rat peritoneal PMNL
- cond: inhibitors at 'AM final concentration' [sic], mean ± SD
One number for each entry, in %.

>>> reported("CC1=C(C)C(=O)C(Nc2nc(C)cc(C)n2)=CC1=O")
89.6
>>> reported("O=C1C=C(Nc2ccccn2)C(=O)c2ccccc21")
86.2
>>> reported("COC1=C(OC)C(=O)C(Nc2ccccn2)=C(C)C1=O")
95.4
>>> reported("CC1=CC(=O)C(Nc2ncccn2)=CC1=O")
90.4
>>> reported("Cc1cc(C)nc(NC2=CC(=O)c3ccccc3C2=O)n1")
86.3

For each entry beneath this line, provide reported 5-LO percent inhibition.
1. CC1=CC(=O)C(Nc2ccccn2)=CC1=O
2. CC(Cc1ccc(O)c(O)c1)C(C)Cc1ccc(O)c(O)c1 (stereo not drawn) [NDGA, reference compound]
3. O=C1C=C(Nc2ccc(Br)cn2)C(=O)c2ccccc21
4. O=C1C=C(Nc2ncccn2)C(=O)c2ccccc21

## Output
85.8
92.0
85.5
96.4

----------
- experimental target: 5-lipoxygenase (5-LO) (Oryctolagus cuniculus, UniProt G1SNX0)
- Construct: Polymorphonuclear leukocytes (PMNLs) were purified from rabbits by glycogen-intraperitoneal elicited intraperitoneal recruitment; endogenous in cells; host or cells: rabbit peritoneal polymorphonuclear leukocytes (PMNL), glycogen-elicited
- Sequence (G1SNX0 1-674): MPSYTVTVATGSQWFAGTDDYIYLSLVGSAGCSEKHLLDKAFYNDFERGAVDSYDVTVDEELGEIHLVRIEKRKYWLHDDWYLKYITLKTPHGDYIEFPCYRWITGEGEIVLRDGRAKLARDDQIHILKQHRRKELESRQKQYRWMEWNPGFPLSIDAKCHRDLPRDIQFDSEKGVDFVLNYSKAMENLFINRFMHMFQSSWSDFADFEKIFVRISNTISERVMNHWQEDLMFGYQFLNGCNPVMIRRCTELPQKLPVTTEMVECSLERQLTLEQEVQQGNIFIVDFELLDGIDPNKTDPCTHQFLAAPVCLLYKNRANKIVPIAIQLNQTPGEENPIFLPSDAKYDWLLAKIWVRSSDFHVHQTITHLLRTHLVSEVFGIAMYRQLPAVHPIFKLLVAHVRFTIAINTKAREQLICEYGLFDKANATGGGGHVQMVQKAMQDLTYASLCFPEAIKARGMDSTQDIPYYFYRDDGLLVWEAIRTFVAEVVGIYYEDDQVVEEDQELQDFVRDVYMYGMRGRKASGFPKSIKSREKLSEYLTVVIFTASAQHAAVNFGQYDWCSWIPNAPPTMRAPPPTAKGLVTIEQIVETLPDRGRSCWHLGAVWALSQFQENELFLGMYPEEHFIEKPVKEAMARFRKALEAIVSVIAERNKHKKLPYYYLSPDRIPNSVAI
- procedure summary: Radioisotopic assay of 5-LO activity (LTB4 formation from 14C-arachidonic acid) in rabbit peritoneal PMNL stimulated with A-23187
- Format: cell-based
- cond: at 1 μM; rabbit peritoneal neutrophils (PMNL); mean ± s.d. of three experiments in duplicate; read-out: % Inhibition (percent inhibition of LTB4 formation)
observable: inhibition at 1 µM (%)
Give bare numbers, in %.

For each entry beneath this line, provide reported inhibition at 1 µM.
1. O=C1C=C(Nc2ccc(Cl)cn2)C(=O)c2ccccc21 [Compound 4k]
2. CC1=CC(=O)C=C(Nc2ncccn2)C1=O [Compound 4o]
3. CC1=CC(=O)C(Nc2ncccn2)=CC1=O [Compound 4p]
4. COC1=C(OC)C(=O)C(Nc2ccccn2)=C(C)C1=O [Compound 4e]
5. O=C1C=C(Nc2ccccn2)C(=O)c2ccccc21 [Compound 4i]
6. O=C1C=C(Nc2ncccn2)C(=O)c2ccccc21 [Compound 4r]

## Output
1: 24; 2: 56; 3: 62; 4: 92; 5: 100; 6: 98

Entry source: patent US6653311B1
